target: PI3Kδ (Homo sapiens); construct: purchased Merck Millipore; test: In vitro PI3K inhibition assay (ADP-Glo kinase assay), PI3Kδ; type: biochemical; conditions: mean of two independent experiments
Sequence (O00329 whole entry, looked up): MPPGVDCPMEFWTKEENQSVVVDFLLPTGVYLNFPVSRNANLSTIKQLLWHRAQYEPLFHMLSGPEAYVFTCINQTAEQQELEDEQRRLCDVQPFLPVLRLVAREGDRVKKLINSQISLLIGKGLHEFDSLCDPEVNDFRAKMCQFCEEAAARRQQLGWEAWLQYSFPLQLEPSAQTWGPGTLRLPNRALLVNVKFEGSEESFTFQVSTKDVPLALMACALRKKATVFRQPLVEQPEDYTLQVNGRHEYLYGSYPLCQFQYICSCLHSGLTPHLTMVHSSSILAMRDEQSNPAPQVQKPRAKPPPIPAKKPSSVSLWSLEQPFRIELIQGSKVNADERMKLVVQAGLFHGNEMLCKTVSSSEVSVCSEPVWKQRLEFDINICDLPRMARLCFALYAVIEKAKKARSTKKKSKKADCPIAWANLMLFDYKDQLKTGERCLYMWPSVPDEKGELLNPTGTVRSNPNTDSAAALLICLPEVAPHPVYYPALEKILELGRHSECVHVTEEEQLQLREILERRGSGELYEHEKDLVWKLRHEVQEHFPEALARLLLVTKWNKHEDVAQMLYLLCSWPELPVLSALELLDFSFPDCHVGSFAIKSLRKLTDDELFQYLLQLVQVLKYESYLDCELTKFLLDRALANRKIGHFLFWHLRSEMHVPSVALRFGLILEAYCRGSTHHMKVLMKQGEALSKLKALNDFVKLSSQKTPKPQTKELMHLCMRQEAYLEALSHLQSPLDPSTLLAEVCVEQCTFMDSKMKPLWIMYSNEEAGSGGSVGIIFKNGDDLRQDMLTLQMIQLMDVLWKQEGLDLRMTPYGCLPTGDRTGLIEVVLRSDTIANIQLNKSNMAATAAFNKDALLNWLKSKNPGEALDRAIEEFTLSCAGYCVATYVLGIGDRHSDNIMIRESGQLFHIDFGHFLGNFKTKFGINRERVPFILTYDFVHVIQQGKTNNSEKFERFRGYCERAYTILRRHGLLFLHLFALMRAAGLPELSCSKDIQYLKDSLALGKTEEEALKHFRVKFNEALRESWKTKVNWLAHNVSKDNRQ
assay.metric: IC50

{"molecule": "FC(F)c1nc2ccccc2n1-c1cc(N2CCOCC2)n2nc(CN3CCOCC3)cc2n1", "target.or.system": "PI3Kδ (Homo sapiens)", "IC50": "135 nM"}
{"molecule": "CC(C)(C)N1CCN(C(=O)c2cc3nc(-n4c(C(F)F)nc5ccccc54)cc(N4CCOCC4)n3n2)CC1", "target.or.system": "PI3Kδ (Homo sapiens)", "IC50": "84 nM"}
{"molecule": "O=C(c1cc2nc(-n3c(C(F)F)nc4ccccc43)cc(N3CCOCC3)n2n1)N1CCN(C(=O)C2CC2)CC1", "target.or.system": "PI3Kδ (Homo sapiens)", "IC50": "63 nM"}

Incoming: Enter measured IC50, system PI3Kδ (Homo sapiens), for the molecule shown: CN1CCN(C(=O)c2cc3nc(-n4c(C(F)F)nc5ccccc54)cc(N4CCOCC4)n3n2)CC1
Outgoing: 768 nM

Incoming: Check PI3Kδ (Homo sapiens) data and give IC50 for O[C@@H]1CCN(Cc2cc3nc(-n4c(C(F)F)nc5ccccc54)cc(N4CCOCC4)n3n2)C1 .
Outgoing: 979 nM

Incoming: Give reported IC50 for NC(=O)C1CCN(Cc2cc3nc(-n4c(C(F)F)nc5ccccc54)cc(N4CCOCC4)n3n2)CC1 (PI3Kδ (Homo sapiens))
Outgoing: 240 nM

Incoming: Please look at OCC1CCN(Cc2cc3nc(-n4c(C(F)F)nc5ccccc54)cc(N4CCOCC4)n3n2)CC1 and tell me its recorded IC50 on PI3Kδ (Homo sapiens).
Outgoing: 593 nM

Incoming: Find IC50 for C[C@@H]1COCCN1Cc1cc2nc(-n3c(C(F)F)nc4ccccc43)cc(N3CCOCC3)n2n1 on PI3Kδ (Homo sapiens) and write it down.
Outgoing: 647 nM

Incoming: Enter recorded IC50 with PI3Kδ (Homo sapiens) for NC1CCN(Cc2cc3nc(-n4c(C(F)F)nc5ccccc54)cc(N4CCOCC4)n3n2)C1 (stereo not shown) here.
Outgoing: 1890 nM

Incoming: Report IC50 from PI3Kδ (Homo sapiens) testing of OCC1CCCN1Cc1cc2nc(-n3c(C(F)F)nc4ccccc43)cc(N3CCOCC3)n2n1 (stereo not shown)
Outgoing: 1070 nM
